# Read-out: growth arrest and DNA damage 45 (GADD45B), GADD45B (gene 4616)
# assay_explanation: LTEA_HepaRG_GADD45B: Life Technologies and Expression Analysis (LTEA) Assay for growth arrest and DNA damage 45 (GADD45B) using HepaRG (AID 2283461)
# condition_description: mRNA level, 48 h; actives raise or lower the signal
# Experimental: LTEA_HepaRG is a cell based, multiplexed-readout assay that uses HepaRG, a human liver cell line, with measurements taken at 48 hours after chemical dosing on a 96-well plate.LTEA_HepaRG_GADD45B is one of 102 assay component(s) measured in the LTEA HepaRG cell culture assay. It is a marker of Cell proliferation, survival, death.Data from the assay component LTEA_HepaRG_GADD45B was analyzed into 1 endpoint. […]
The source made the active and inactive calls. The calls were made as follows: active = hit-call score of the fitted dose curve at least 0.9, where 1 is the maximum; inactive = score below 0.9.
Outcomes: 1 (yes) for active, 0 (no) for inactive

>>> cat("CC(C)(c1ccccc1)c1ccc(O)c(C(C)(C)c2ccccc2)c1")
"0 (no)"
>>> cat("O=C(Nc1ccc2[nH]ccc2c1)c1cc2cc(F)ccc2n1Cc1cccc(F)c1")
"0 (no)"
>>> cat("O=[N+]([O-])c1ccc(O)c([N+](=O)[O-])c1")
"1 (yes)"
>>> cat("C[C@@H]1C[C@@H]([C@H](O)CC2CC(=O)NC(=O)C2)C(=O)[C@@H](C)C1")
"1 (yes)"
>>> cat("CCC(=O)C(CC(C)N(C)C)(c1ccccc1)c1ccccc1 (configuration not stated)")
"0 (no)"
>>> cat("O=C1C2(Cl)C3(Cl)C4(Cl)C(Cl)(Cl)C5(Cl)C3(Cl)C1(Cl)C5(Cl)C24Cl (configuration not stated)")
"1 (yes)"
>>> cat("CC(C)(C)c1cc(O)ccc1O")
"0 (no)"
>>> cat("Cn1sc(Cl)cc1=O")
"0 (no)"
>>> cat("CC12CC1(C)C(=O)N(c1cc(Cl)cc(Cl)c1)C2=O (configuration not stated)")
"0 (no)"
>>> cat("Oc1cccc2cccnc12")
"0 (no)"
>>> cat("CCC(C)(C)c1ccc(O)c(C(C)(C)CC)c1")
"0 (no)"
>>> cat("CC(C)(C)CC(C)(C)c1ccc(O)cc1")
"0 (no)"

---

# tested_on: Retinoic acid receptor RXR-alpha (Homo sapiens) (UniProt P19793)
# Sequence (P19793 whole entry, looked up): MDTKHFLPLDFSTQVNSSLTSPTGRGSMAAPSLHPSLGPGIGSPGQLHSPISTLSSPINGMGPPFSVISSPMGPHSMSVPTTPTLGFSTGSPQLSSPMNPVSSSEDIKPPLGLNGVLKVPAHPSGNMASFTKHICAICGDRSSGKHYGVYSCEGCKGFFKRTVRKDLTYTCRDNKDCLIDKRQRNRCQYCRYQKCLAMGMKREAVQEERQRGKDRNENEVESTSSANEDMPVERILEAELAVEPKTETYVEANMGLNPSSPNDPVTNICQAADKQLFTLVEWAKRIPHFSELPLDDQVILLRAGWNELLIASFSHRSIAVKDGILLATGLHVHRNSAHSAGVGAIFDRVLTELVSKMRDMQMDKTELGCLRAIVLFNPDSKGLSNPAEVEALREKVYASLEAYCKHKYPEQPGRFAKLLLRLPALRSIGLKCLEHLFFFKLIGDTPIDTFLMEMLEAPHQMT
# assay_explanation: OT_NURR1_NURR1RXRa_1440: Odyssey Thera (OT) 24-hour HEK293T Protein Complementation Assay for Nurr1/retinoid X receptor (RXR) (AID 2283386)
Records with an inconclusive call do not appear. Active and inactive are the calls of the source. The calls were made as follows: active = hit-call score of the fitted dose curve at least 0.9, where 1 is the maximum; inconclusive = response in the unintended direction; inactive = score below 0.9.
Outcomes: 1 for active, -1 for inactive

>>> cat("ClCC(Cl)CCl")
-1
>>> cat("CNC")
-1
>>> cat("C=C(C)C#N")
-1
>>> cat("COP(=O)(OC)O/C(=C\\Cl)c1cc(Cl)c(Cl)cc1Cl")
-1
>>> cat("CC12CC1(C)C(=O)N(c1cc(Cl)cc(Cl)c1)C2=O (stereo unspecified)")
-1
>>> cat("O=C(O)C(F)(F)C(F)(F)C(F)(F)C(F)(F)C(F)(F)C(F)(F)F")
-1
>>> cat("O=C(O)C(Cl)(Cl)Cl")
-1
>>> cat("COP(=O)(OC)OC")
-1
>>> cat("Oc1ccc(-c2ccccc2)cc1")
1
>>> cat("CC(=O)[O][Hg][c]1ccccc1")
1
>>> cat("CCC[CH2][Sn]([CH2]CCC)([CH2]CCC)[O]C(=O)c1ccccc1")
-1
>>> cat("c1cc[c]([Hg][c]2ccccc2)cc1")
1
>>> cat("COC(=O)c1sccc1S(=O)(=O)NC(=O)Nc1nc(C)nc(OC)n1")
-1
>>> cat("CCC(=O)C(CC(C)N(C)C)(c1ccccc1)c1ccccc1 (stereo unspecified)")
-1
>>> cat("COc1cc(OC)nc(NC(=O)NS(=O)(=O)c2ncccc2C(=O)N(C)C)n1")
-1
>>> cat("O=C1CCCN1")
-1
>>> cat("Cn1sc(Cl)cc1=O")
-1
>>> cat("CCOC(=O)Nc1cccc(OC(=O)Nc2ccccc2)c1")
-1
>>> cat("O=C(NCO)NCO")
-1
>>> cat("ClC(Cl)=C(Cl)C(Cl)=C(Cl)Cl")
-1
>>> cat("Clc1ccc(C2(Cn3cncn3)CC(Br)CO2)c(Cl)c1 (stereo unspecified)")
-1
>>> cat("C=CCc1ccc(OC)cc1")
-1
>>> cat("O=S(=O)(c1ccc(Cl)cc1)c1ccc(Cl)cc1")
-1
>>> cat("CC(C)(C)c1cc(O)ccc1O")
-1
>>> cat("Fc1ccc(C2(Cn3cncn3)OC2c2ccccc2Cl)cc1 (stereo unspecified)")
-1
>>> cat("NNC(=S)NN")
-1

---

# Read-out: HGF (gene 3082)
# assay_explanation: LTEA_HepaRG_HGF: Life Technologies and Expression Analysis (LTEA) Assay for Hepatocyte Growth Facto (HGF) using HepaRG (AID 2283505)
# condition_description: mRNA level, 48 h; actives raise or lower the signal
# Protocol: LTEA_HepaRG is a cell based, multiplexed-readout assay that uses HepaRG, a human liver cell line, with measurements taken at 48 hours after chemical dosing on a 96-well plate.LTEA_HepaRG_HGF is one of 102 assay component(s) measured in the LTEA HepaRG cell culture assay. It is a marker of Cell proliferation, survival, death.Data from the assay component LTEA_HepaRG_HGF was analyzed into 1 endpoint. […]
Active and inactive are the calls of the source. How the source made its calls: active means hit-call score of the fitted dose curve at least 0.9, where 1 is the maximum; inactive means score below 0.9.
quantity_measured: AC50

>>> recorded_value("CCCCCCCCc1ccc(O)cc1")
"inactive"
>>> recorded_value("Oc1cccc2cccnc12")
"inactive"
>>> recorded_value("C=CC(=O)OCCCCCC(C)C")
"inactive"
>>> recorded_value("CCC(C)(C)c1ccc(O)c(C(C)(C)CC)c1")
"inactive"
>>> recorded_value("O=C1C2(Cl)C3(Cl)C4(Cl)C(Cl)(Cl)C5(Cl)C3(Cl)C1(Cl)C5(Cl)C24Cl (stereo not drawn)")
"inactive"
>>> recorded_value("CC12CC1(C)C(=O)N(c1cc(Cl)cc(Cl)c1)C2=O (stereo not drawn)")
"inactive"
>>> recorded_value("Cn1sc(Cl)cc1=O")
"inactive"
>>> recorded_value("C=C(C)C(=O)[O][Sn]([CH2]CCC)([CH2]CCC)[CH2]CCC")
"72 µM (active)"
>>> recorded_value("CC(C)(C)CC(C)(C)c1ccc(O)cc1")
"inactive"
>>> recorded_value("CC(C)(c1ccccc1)c1ccc(O)c(C(C)(C)c2ccccc2)c1")
"inactive"
>>> recorded_value("C[C@@H]1C[C@@H]([C@H](O)CC2CC(=O)NC(=O)C2)C(=O)[C@@H](C)C1")
"71.7 µM (active)"
>>> recorded_value("CC(C)(C)c1cc(O)ccc1O")
"inactive"
>>> recorded_value("ClCC(Cl)CCl")
"inactive"

---

# Read-out: Interleukin-8 (IL8), CXCL8 (gene 3576)
# assay_explanation: BSK_hDFCGF_IL8: BioMAP Diversity Plus: hDFCGF Assay for Interleukin-8 (IL8) Biomarker Activity (AID 2283058)
# condition_description: primary human foreskin fibroblasts; actives raise or lower the signal
Activity calls are given as the source filed them. The calls were made as follows: active = hit-call score of the fitted dose curve at least 0.9, where 1 is the maximum; inactive = score below 0.9.
Outcomes: TRUE = active, FALSE = inactive

>>> cat("CC(C)(C)c1cc(O)ccc1O")
"TRUE"
>>> cat("CC(=O)OC(c1ccccc1)C(Cl)(Cl)Cl (stereo not drawn)")
"FALSE"
>>> cat("CCOC(=O)/C=C(C)/C=C/C[C@@H](C)CCCC(C)C")
"FALSE"
>>> cat("CCC(=O)C(CC(C)N(C)C)(c1ccccc1)c1ccccc1 (stereo not drawn)")
"FALSE"
>>> cat("C(=NC1CCCCC1)=NC1CCCCC1")
"TRUE"
>>> cat("CCNc1nc(NC(C)(C)C)nc(SC)n1")
"FALSE"
>>> cat("CCC(C)(C)c1ccc(O)c(C(C)(C)CC)c1")
"TRUE"
>>> cat("CN(C)N=O")
"FALSE"
>>> cat("O=c1[nH]c(=O)[nH]c(=O)[nH]1")
"FALSE"
>>> cat("CCOP(=S)(OCC)SCSP(=S)(OCC)OCC")
"FALSE"
>>> cat("Oc1cccc2cccnc12")
"FALSE"
>>> cat("Nc1cccc2ccccc12")
"FALSE"
>>> cat("CC(=O)[O][Hg][c]1ccccc1")
"TRUE"
>>> cat("NC(=S)Nc1ccccc1")
"FALSE"
>>> cat("O=Cc1cccc(Oc2ccccc2)c1")
"FALSE"
>>> cat("C[C@]12CCC(=O)C[C@@H]1CC[C@@H]1[C@@H]2CC[C@]2(C)[C@@H](O)CC[C@@H]12")
"FALSE"
>>> cat("CC(C)CCCCCCOC(=O)c1ccccc1C(=O)OCCCCCCC(C)C")
"FALSE"
>>> cat("Nc1ncc([N+](=O)[O-])s1")
"FALSE"
>>> cat("ClC1=C(Cl)[C@]2(Cl)[C@H]3[C@H]([C@H]4C=C[C@H]3C4)[C@@]1(Cl)C2(Cl)Cl")
"FALSE"
>>> cat("Cc1ccccc1N")
"FALSE"
>>> cat("CC(C)(c1ccccc1)c1ccc(O)c(C(C)(C)c2ccccc2)c1")
"TRUE"
>>> cat("O=C(O)C(F)(F)C(F)(F)C(F)(F)C(F)(F)C(F)(F)C(F)(F)F")
"FALSE"
>>> cat("CC(C)(OO)c1ccccc1")
"TRUE"
>>> cat("CCN1CCC2(CC1)COc1cc3c(cc12)N(C(=O)c1ccc(-c2ccc(-c4nnc(C)o4)cc2C)cc1)CC3")
"TRUE"
>>> cat("COC(=O)Cc1ccccc1")
"FALSE"
>>> cat("ClC(Cl)=C(Cl)C(Cl)=C(Cl)Cl")
"FALSE"
>>> cat("CC(=O)C(Cl)C(=O)N(C)C (stereo not drawn)")
"FALSE"
>>> cat("CC(C)c1ccc(CO)cc1")
"FALSE"
